Data origin: PubChem BioAssay

Assay: HUVEC growth inhibition – cell-based, human, primary screen (AID 575);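 further: 100% = median of untreated cell wells with 0.1% DMSO on each plate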
Conditions: HUVEC proliferation, CellTiter-Glo luminescence, 72 h; at 10 µM; active compounds read low
Result type: viability (%)
Just the number in %, nothing appended.

Input CCc1ccc(NS(=O)(=O)c2cccs2)cc1 . Output viability: 101

Entry under test: Cn1c(=O)c2c(nc(Oc3ccc4c(c3)OCO4)n2Cc2ccc(F)cc2)n(C)c1=O . Its viability was 72.1

Lab book: viability of COc1ccccc1-c1nnc(SCc2ccccn2)n1C noted as 113

# viability of CC(C)(C)c1cc(C(=O)O)nn1-c1ccccc1 = 98.1

molecule O=C1N(CCCCN2C(=O)C3(OCCO3)c3ccccc32)c2ccccc2C12OCCO2 , viability observed: 73.2

// field: viability; key: CC1(C)Cc2noc(N)c2C(C)(C)N1OC(=O)c1ccco1 ; value = 93.1

Measured viability, CCOC(=O)C1CCN(c2c(NCCCN(CC)c3ccccc3)c(=O)c2=O)CC1 : 91.9

====

# viability listing for each entry below
Assay: SK-BR-3 cell growth inhibitors, pilot screen, 24 h, human (AID 572);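 further: compound exposure lasted between 18 and 24 h rather than exactly 24 h; 100% = carrier-treated control wells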
Conditions: SK-BR-3 viability, CellTiter-Glo luminescence, at 10 µM, active compounds read low
Numbers only; they are read as %.

Please review the entries below; each comes with its answer.
[[record]]
compound = "CCCN(C(=O)CSc1nnc(-c2ccoc2C)n1N)C1CCS(=O)(=O)C1 (stereo unspecified)"
result_type = "viability"
u = "%"
value_reported = 86.5

[[record]]
compound = "CC(=O)Nc1ccccc1OCc1nnc(-c2cccs2)o1"
result_type = "viability"
u = "%"
value_reported = 97

[[record]]
compound = "COc1ccc(OCC(O)Cn2c(Br)nc3c2c(=O)[nH]c(=O)n3C)cc1 (stereo unspecified)"
result_type = "viability"
u = "%"
value_reported = 84

[[record]]
compound = "CN(C)C(=O)CN(c1ccc(F)c(Cl)c1)S(C)(=O)=O"
result_type = "viability"
u = "%"
value_reported = 101

[[record]]
compound = "O=C(CCCn1c(=S)[nH]c2ccccc2c1=O)N1CCCCC1"
result_type = "viability"
u = "%"
value_reported = 86


Lab note: COc1ccccc1S(=O)(=O)n1cc(Cc2ccccc2)c(N)n1 gave viability of 96.5

The reported value for O=c1cc(CN2CCN(c3ccc(F)cc3)CC2)nc2sccn12 in terms of viability is 85

Query O=C(c1ccco1)N1CCN(S(=O)(=O)c2ccc(C3CCCCC3)cc2)CC1 yields viability of 96

Kindly note the recorded viability for Cn1c(=O)[nH]c(=O)c2[nH]c(CN3CCN(C(=O)c4ccco4)CC3)nc21 , which is 98.5

# viability of O=C(Nc1ccc(F)cc1F)NC1CC(=O)N(Cc2ccccc2)C1 (stereo unspecified) = 92.5

The reported value for O=C(Nc1ccc2c(c1)nc1n2CCSC1)c1ccccc1 in terms of viability is 97

====

Assay: HUVEC growth inhibition – cell-based, human, primary screen (AID 575);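 further: 100% = median of untreated cell wells with 0.1% DMSO on each plate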
Conditions: HUVEC proliferation, CellTiter-Glo luminescence, 72 h; at 10 µM; active compounds read low
Result type: viability (%)
Quick note: give the figure in %, leave out the unit.

[[record]]
compound = "O=C(O)CCCC(=O)Nc1nc(-c2ccc(F)cc2)cs1"
value_reported = 83.3

[[record]]
compound = "Cc1ccc(C(C(=O)NC(C)(C)C)N(C(=O)c2csnn2)c2cccc(F)c2)o1 (configuration not stated)"
value_reported = 103


The value of viability measured for the compound O=C(CCn1nc(-c2ccc(Cl)cc2)ccc1=O)N1CCN(c2ccccn2)CC1 turned out to be 101
